# ASSAY_COMMENT: in vivo
# TEST_CONTEXT: male, Sprague-Dawley, rat, in vivo, po, 20 mg/kg, Ke of HAR, rat plasma; oral HAR 20.0 mg/kg alone (HAR-L); n = 8, mean ± SD
PROPERTY_MEASURED: k el
Dear colleague, please send the value followed by its unit.

Give its k el value. Item: COc1ccc2c(c1)[nH]c1c(C)nccc12
0.000119 s⁻¹

====

# ASSAY_COMMENT: Pharmacokinetic study in rats after oral HAR and MEM alone and in combination (plasma, UPLC-MS/MS, non-compartmental)
# TEST_CONTEXT: male, Sprague-Dawley, rat, plasma, po, 5 mg/kg, Tmax of MEM, rat plasma; oral MEM 5.0 mg/kg + HAR 40.0 mg/kg (HAR-M + MEM); n = 8, mean ± SD
PROPERTY_MEASURED: Tmax (h)
Lab book: enter the figure in h, no units written.

Give the measured Tmax of CC12CC3CC(C)(C1)CC(N)(C3)C2 [MEM, 1-amino-3,5-dimethyladamantane, reference compound] .
1.56

====

# ASSAY_COMMENT: in vivo
# TEST_CONTEXT: male, Sprague-Dawley, rat, in vivo, po, 20 mg/kg, Tmax of HAR, rat plasma; oral HAR 20.0 mg/kg + MEM 5.0 mg/kg (HAR-L + MEM); n = 8, mean ± SD
PROPERTY_MEASURED: Tmax (min)
Note: unit min is implicit; provide only the numeric part.

Any idea what Tmax was measured for COc1ccc2c(c1)[nH]c1c(C)nccc12 ?
30

====

# ASSAY_COMMENT: in vivo
# TEST_CONTEXT: male, Sprague-Dawley, rat, in vivo, po, 40 mg/kg, Tmax of HAR, rat plasma; oral HAR 40.0 mg/kg alone (HAR-M); n = 8, mean ± SD
PROPERTY_MEASURED: Tmax (min)
# number only, unit min dropped from output

Sample COc1ccc2c(c1)[nH]c1c(C)nccc12 — what was its Tmax?
21.9

====

# ASSAY_COMMENT: in vivo
# TEST_CONTEXT: male, Sprague-Dawley, rat, in vivo, po, 20 mg/kg, AUC(0-t) of HAR, rat plasma; oral HAR 20.0 mg/kg alone (HAR-L); n = 8, mean ± SD
PROPERTY_MEASURED: AUC(0-t) (ng·h/mL)
The figure you give is taken to be in ng·h/mL; do not add the unit.

Fill in: AUC(0-t) of COc1ccc2c(c1)[nH]c1c(C)nccc12 is ___
74.9

====

# ASSAY_COMMENT: in vivo
# TEST_CONTEXT: male, Sprague-Dawley, rat, in vivo, po, 20 mg/kg, MRT of HAR, rat plasma; oral HAR 20.0 mg/kg + MEM 5.0 mg/kg (HAR-L + MEM); n = 8, mean ± SD
PROPERTY_MEASURED: MRT (h)
Number in h, nothing else.

Quick one: MRT of COc1ccc2c(c1)[nH]c1c(C)nccc12 [HAR] ?
4.02

====

# ASSAY_COMMENT: Pharmacokinetic study in rats after oral HAR and MEM alone and in combination (plasma, UPLC-MS/MS, non-compartmental)
# TEST_CONTEXT: male, Sprague-Dawley, rat, plasma, po, 5 mg/kg, Ke of MEM, rat plasma; oral MEM 5.0 mg/kg alone (MEM group); n = 8, mean ± SD
PROPERTY_MEASURED: k el (s⁻¹)
// note: answer is a bare numeric in s⁻¹

Which k el reading was recorded for the molecule CC12CC3CC(C)(C1)CC(N)(C3)C2 [MEM, 1-amino-3,5-dimethyladamantane, reference compound] ?
7.25e-05

====

# ASSAY_COMMENT: in vivo
# TEST_CONTEXT: male, Sprague-Dawley, rat, in vivo, po, 20 mg/kg, AUC(0-t) of HAR, rat plasma; oral HAR 20.0 mg/kg + MEM 5.0 mg/kg (HAR-L + MEM); n = 8, mean ± SD
# Procedure: The analytes were separated on an ACQUITY UPLC BEH C18 column (2.1 mm × 50 mm, 1.7 μm, Waters, Milford, USA). […] The flow rate was 0.3 mL/min. The column and sample-tray temperature were kept at 40 °C and 4 °C, respectively. The injection volume was 5.0 μL using a partial loop with needle over fill mode. […] All standard curves and quantitative data were processed by Agilent Mass Hunter Quantitative Analysis Workstation Software. […]
PROPERTY_MEASURED: AUC(0-t) (ng·h/mL)
Lab book: enter the figure in ng·h/mL, no units written.

I would be grateful if you could share the reported AUC(0-t) for COc1ccc2c(c1)[nH]c1c(C)nccc12 .
141

====

# ASSAY_COMMENT: in vivo
# TEST_CONTEXT: male, Sprague-Dawley, rat, in vivo, po, 20 mg/kg, Cmax of HAR, rat plasma; oral HAR 20.0 mg/kg alone (HAR-L); n = 8, mean ± SD
PROPERTY_MEASURED: Cmax (ng/mL)
The reply should contain only the number, in ng/mL.

Look up Cmax: COc1ccc2c(c1)[nH]c1c(C)nccc12
31.4

====

# ASSAY_COMMENT: in vivo
# TEST_CONTEXT: male, Sprague-Dawley, rat, in vivo, po, 80 mg/kg, Tmax of HAR, rat plasma; oral HAR 80.0 mg/kg + MEM 5.0 mg/kg (HAR-H + MEM); n = 8, mean ± SD
# Experimental: The analytes were separated on an ACQUITY UPLC BEH C18 column (2.1 mm × 50 mm, 1.7 μm, Waters, Milford, USA). […] The flow rate was 0.3 mL/min. The column and sample-tray temperature were kept at 40 °C and 4 °C, respectively. The injection volume was 5.0 μL using a partial loop with needle over fill mode. […] All standard curves and quantitative data were processed by Agilent Mass Hunter Quantitative Analysis Workstation Software. […]
PROPERTY_MEASURED: Tmax (min)
Numbers only here, please. The scale is min.

Entry COc1ccc2c(c1)[nH]c1c(C)nccc12 [HAR] has what Tmax?
26.9

====

# ASSAY_COMMENT: in vivo
# TEST_CONTEXT: male, Sprague-Dawley, rat, in vivo, po, 40 mg/kg, CL/F of HAR, rat plasma; oral HAR 40.0 mg/kg alone (HAR-M); n = 8, mean ± SD
PROPERTY_MEASURED: CL/F (L/h/kg)
Please reply with the bare figure in L/h/kg and do not write the unit itself.

Given the entry COc1ccc2c(c1)[nH]c1c(C)nccc12 , report its measured CL/F.
431

====

# ASSAY_COMMENT: in vivo
# TEST_CONTEXT: male, Sprague-Dawley, rat, in vivo, po, 80 mg/kg, Ke of HAR, rat plasma; oral HAR 80.0 mg/kg alone (HAR-H); n = 8, mean ± SD
PROPERTY_MEASURED: k el (s⁻¹)
State the answer as a number, implicitly in s⁻¹.

Sample COc1ccc2c(c1)[nH]c1c(C)nccc12 — what was its k el?
0.000116

====

# ASSAY_COMMENT: Pharmacokinetic study in rats after oral HAR and MEM alone and in combination (plasma, UPLC-MS/MS, non-compartmental)
# TEST_CONTEXT: male, Sprague-Dawley, rat, plasma, po, 5 mg/kg, Tmax of MEM, rat plasma; oral MEM 5.0 mg/kg alone (MEM group); n = 8, mean ± SD
PROPERTY_MEASURED: Tmax (h)
Please state the figure in h; there is no need to write the unit.

Requested read-out: Tmax. Entry: CC12CC3CC(C)(C1)CC(N)(C3)C2 [MEM, 1-amino-3,5-dimethyladamantane, reference compound]
1.31

====

# ASSAY_COMMENT: Pharmacokinetic study in rats after oral HAR and MEM alone and in combination (plasma, UPLC-MS/MS, non-compartmental)
# TEST_CONTEXT: male, Sprague-Dawley, rat, plasma, po, 5 mg/kg, CL/F of MEM, rat plasma; oral MEM 5.0 mg/kg + HAR 80.0 mg/kg (HAR-H + MEM); n = 8, mean ± SD
PROPERTY_MEASURED: CL/F (mL/min/kg)
Express the result in mL/min/kg but write the number alone.

// query CL/F value for entry CC12CC3CC(C)(C1)CC(N)(C3)C2 [MEM, 1-amino-3,5-dimethyladamantane, reference compound]
118

====

# ASSAY_COMMENT: in vivo
# TEST_CONTEXT: male, Sprague-Dawley, rat, in vivo, po, 40 mg/kg, Tmax of HAR, rat plasma; oral HAR 40.0 mg/kg + MEM 5.0 mg/kg (HAR-M + MEM); n = 8, mean ± SD
PROPERTY_MEASURED: Tmax (min)
Form entry: value (min) — number only.

Reported Tmax, molecule COc1ccc2c(c1)[nH]c1c(C)nccc12 : ____
14.4

====

# ASSAY_COMMENT: in vivo
# TEST_CONTEXT: male, Sprague-Dawley, rat, in vivo, po, 20 mg/kg, Ke of HAR, rat plasma; oral HAR 20.0 mg/kg + MEM 5.0 mg/kg (HAR-L + MEM); n = 8, mean ± SD
PROPERTY_MEASURED: k el (s⁻¹)
Hi! Could you send only the number? It should be in s⁻¹, unit omitted.

Consider the molecule shown here: COc1ccc2c(c1)[nH]c1c(C)nccc12 What is its recorded k el?
8.67e-05
